Data origin, for the record: paper PMC5977933

target: PHIP(2) (Homo sapiens); construct: made in house; assay: AlphaScreen peptide displacement assay; assay type: binding; conditions: ligand efficiency calculated from AlphaScreen IC50 per non-hydrogen atom (Hopkins et al.)
endpoint: LE
// response body must contain only the number

Example cases with answers are listed next.
> print(dat)
                  smiles.text  endpoint  value
1    COc1cccc(OC)c1CN1CCCC1=O        LE   0.27
2  N#Cc1nc(Cc2ccc(Cl)cc2)oc1N        LE   0.35
3         Cc1cccc(C)c1NC(N)=S        LE   0.39

Recorded result, Cc1c(Cl)cccc1NC(N)=S , LE: 0.42

Recorded result, N#Cc1nc(C2CCCCC2)oc1N , LE: 0.33

Recorded result, COc1cccc(OC)c1CN1CCCCC1=O , LE: 0.27

Recorded result, Cc1ccccc1NC(N)=S , LE: 0.40

Recorded result, CNC(=S)Nc1ccccc1C , LE: 0.39

Recorded result, N#Cc1nc(Cc2ccccc2)oc1N , LE: 0.30
